// data source = patent US8058243B2

Test system: murine neural precursor cells (neurosphere cultures)
Test: HTS of LOPAC library against secondary neurosphere cultures, MTT proliferation assay at 3 μM, day 7 (z score, P value)
Type: cell-based, mouse
Structures can show the parent of a compound that is named as a salt.
API: label(entry) gives True if the entry's Z score is strictly smaller than 0.1; on equality or larger values it gives False.

Would you please look over these solved cases?
{"COMPOUND": "NCCS(=O)O", "CATEGORY LABEL": "False"}
{"COMPOUND": "Oc1ccc2c3c1O[C@H]1[C@@H](O)CC[C@@]4(O)[C@@H](C2)N(CC2CCC2)CC[C@]314 [Nalbuphine hydrochloride]", "CATEGORY LABEL": "True"}
{"COMPOUND": "O=C(O)C1CCCNC1 (racemic) [(±)-Nipecotic acid]", "CATEGORY LABEL": "True"}
{"COMPOUND": "CC[N+](CC)(CC)CC.[Cl-] [Tetraethylammonium chloride]", "CATEGORY LABEL": "False"}

Okay, now this compound:
Does the reported Z score of the following compound sit strictly below 0.1? Nc1nc2ccc(Cl)cc2c2nc(-c3ccco3)nn12 False

----------
Tested on: murine neural precursor cells (neurosphere cultures)
Assay: HTS of LOPAC library against secondary neurosphere cultures, MTT proliferation assay at 3 μM, day 7 (z score, P value)
Assay type: cell-based, mouse
Settings: LOPAC primary screen, neurosphere MTT proliferation, 3 μM, day 7
API: label(entry) gives class 1 if the entry's Z score is strictly smaller than -1; on equality or larger values it gives class 0.

Does the reported Z score of the following molecule sit strictly below -1? COc1ccc(CCN(C)CCCC(C#N)(c2cc(OC)c(OC)c(OC)c2)C(C)C)cc1OC.Cl (racemic) [(±)-Methoxyverapamil hydrochloride] class 1

Quick one: C[C@]12CCC(=O)C=C1CC[C@@H]1[C@@H]2[C@@H](O)C[C@@]2(C)[C@H]1CC[C@]2(O)C(=O)COC(=O)CCC(=O)[O-].[Na+] [Hydrocortisone 21-hemisuccinate sodium] class 0

Quick one: CC(C)Cc1ccc([C@H](C)C(=O)O)cc1 [S(+)-Ibuprofen] class 0

----------
Test system: murine neural precursor cells (neurosphere cultures)
Experiment: HTS of LOPAC library against secondary neurosphere cultures, MTT proliferation assay at 3 μM, day 7 (z score, P value)
Assay type: cell-based, mouse
Settings: LOPAC primary screen, neurosphere MTT proliferation, 3 μM, day 7
Provide the recorded Z score for the entries that follow.
Answers are plain numbers.

{"COMPOUND": "COc1cc(OC)c(C=C2C(O)=Nc3ccccc32)c(OC)c1", "Z score": "−1.630"}
{"COMPOUND": "CN(Cc1cnc2nc(N)nc(N)c2n1)c1ccc(C(=O)N[C@@H](CCC(=O)O)C(=O)O)cc1 [Methotrexate]", "Z score": "−10.203"}
{"COMPOUND": "N=C(N)N/N=C/c1c(Cl)cccc1Cl [Guanabenz acetate]", "Z score": "−1.906"}
{"COMPOUND": "C[C@@]1(C2CCCC2)Cc2cc(OCC(=O)O)c(Cl)c(Cl)c2C1=O [R(+)-IAA-94]", "Z score": "−0.010"}
{"COMPOUND": "O=C(O)c1cc(=O)c2ccccc2[nH]1", "Z score": 0.702}
{"COMPOUND": "COc1ccccc1N1CCN(CCN(C(=O)c2ccc(I)cc2)c2ccccn2)CC1.Cl [p-MPPI hydrochloride]", "Z score": 0.261}

Each compound below has a reported value. Please supply its Z score.
1. CNCC[C@H](Oc1ccc(C(F)(F)F)cc1)c1ccccc1.Cl [S-(+)-Fluoxetine hydrochloride]
2. C#CCN1C(C)=C(C(=O)OC)C(c2cccc([N+](=O)[O-])c2)C(C(=O)OCC)=C1C (stereo not drawn)

1. −0.809
2. −0.006

Item: Cc1ccc(S(=O)(=O)N[C@@H](CCCCN)C(=O)CCl)cc1.Cl Test system: murine neural precursor cells (neurosphere cultures) Read-out: Z score Value: ? 0.005

----------
System: murine neural precursor cells (neurosphere cultures)
Test: HTS of LOPAC library against secondary neurosphere cultures, MTT proliferation assay at 3 μM, day 7 (z score, P value)
Format: cell-based, mouse
Conditions: LOPAC library screen, 3 μM, MTT, neurosphere cultures
Counter-ions that a name gives are not always drawn.
API: label(entry) gives fulfilled if the entry's Z Score is strictly smaller than 0.4; on equality or larger values it gives not fulfilled.

{"MOLECULE": "Cl.OC[C@H]1NC[C@H](O)[C@@H](O)[C@@H]1O [1-Deoxynojirimycin hydrochloride]", "CATEGORY LABEL": "not fulfilled"}
{"MOLECULE": "C[N+]1(CCCCC[N+]2(C)CCCC2)CCCC1.O=C([O-])C(O)C(O)C(=O)O.O=C([O-])C(O)C(O)C(=O)O [Pentolinium di[L(+)-tartrate]]", "CATEGORY LABEL": "fulfilled"}
{"MOLECULE": "c1ccc(C2CC2)c(OCC2=NCCN2)c1 [Cirazoline hydrochloride]", "CATEGORY LABEL": "not fulfilled"}
{"MOLECULE": "COc1cccc2c1[C@@H]1CN(CCCCn3c(=O)[nH]c4c(sc5ncc(-c6ccccc6)nc54)c3=O)C[C@@H]1CO2 [Fiduxosin hydrochloride]", "CATEGORY LABEL": "fulfilled"}
{"MOLECULE": "CC(=O)[C@H]1CC[C@H]2[C@@H]3CCC4=CC(=O)CC[C@]4(C)[C@H]3CC[C@]12C", "CATEGORY LABEL": "not fulfilled"}

Does the reported Z Score of the following molecule sit strictly below 0.4? O=C(CCCN1CC=C(n2c(=O)[nH]c3ccccc32)CC1)c1ccc(F)cc1 not fulfilled

Quick one: COCC(=O)O[C@]1(CCN(C)CCCc2nc3ccccc3[nH]2)CCc2cc(F)ccc2[C@@H]1C(C)C [Mibefradil dihydrochloride] fulfilled

----------
System: murine neural precursor cells (neurosphere cultures)
Assay: HTS of LOPAC library against secondary neurosphere cultures, MTT proliferation assay at 3 μM, day 7 (z score, P value)
Type: cell-based, mouse
Details: LOPAC primary screen, neurosphere MTT proliferation, 3 μM, day 7
Decide using Z score: a value greater than or equal to -0.5 is Condition met, a smaller one is Condition not met.

{"COMPOUND": "O=C(O)CNC(=O)C(CS)Cc1ccccc1 (racemic)", "TARGET": "murine neural precursor cells (neurosphere cultures)", "CATEGORY LABEL": "Condition met"}

Test whether the compound NNC(=O)c1ccc(O)cc1 [4-Hydroxybenzhydrazide] records Z score of -0.5 or higher. Condition not met

Quick one: Cn1cnc2c(NC3CCCC3)ncnc21 Condition not met

Quick one: COC(=O)[C@H]1[C@H]2C[C@@H]3c4[nH]c5cc(OC)ccc5c4CCN3C[C@H]2C[C@@H](OC(=O)c2cc(OC)c(OC)c(OC)c2)[C@@H]1OC Condition not met

----------
Provide the recorded Z score for the entries that follow.
System: murine neural precursor cells (neurosphere cultures)
Assay: HTS of LOPAC library against secondary neurosphere cultures, MTT proliferation assay at 3 μM, day 7 (z score, P value)
Assay type: cell-based, mouse
Conditions: LOPAC primary screen, neurosphere MTT proliferation, 3 μM, day 7
Counter-ions that a name gives are not always drawn.
Answers are plain numbers.

Solved entries:
{"COMPOUND": "O=c1c(-c2ccc(O)cc2)coc2cc(O)cc(O)c12 [Genistein]", "Z score": "−0.469"}
{"COMPOUND": "OCCN1CCN(CCCN2c3ccccc3Sc3ccc(Cl)cc32)CC1 [Perphenazine (26), Perphenazine, reference compound]", "Z score": "−11.065"}
{"COMPOUND": "C[N+](C)(C)CCCCCC[N+](C)(C)C.[Cl-].[Cl-] [Hexamethonium dichloride]", "Z score": "−10.634"}
{"COMPOUND": "NCc1cc(=O)[nH]o1 [Muscimol hydrobromide]", "Z score": 0.186}
{"COMPOUND": "O=C1NCN(c2ccccc2)C12CCN(CC1COc3ccccc3O1)CC2 (stereo not shown) [Spiroxatrine]", "Z score": 0.122}
{"COMPOUND": "O=c1[nH]c2ccccc2n1C1CCN(CCCC(c2ccc(F)cc2)c2ccc(F)cc2)CC1 [Pimozide]", "Z score": "−0.232"}

Each compound below has a reported value. Please supply its Z score.
1. CCn1cc(C(=O)O)c(=O)c2ccc(C)nc21 [Nalidixic acid sodium]
2. CNC1(C)C2CCC(C2)C1(C)C (stereo not shown) [Mecamylamine hydrochloride]
3. COc1cccc(-c2cc(=O)c3ccccc3o2)c1N [PD 98,059]

1: −0.314; 2: −2.108; 3: 0.903

Each compound below has a reported value. Please supply its Z score.
1. Nc1ccc(N2C(=O)c3ccccc3C2=O)c(Cl)c1 [L-655,708]
2. CC(C)N(CCC(C(N)=O)(c1ccccc1)c1ccccn1)C(C)C (stereo not shown) [Disopyramide]
3. CC(C)COCC(CN(Cc1ccccc1)c1ccccc1)N1CCCC1 (stereo not shown) [Bepridil (28), Bepridil, reference compound]
4. CC[C@]1(O)C[C@H]2CN(CCc3c([nH]c4ccccc34)[C@@](C(=O)OC)(c3cc4c(cc3OC)N(C=O)[C@H]3[C@@](O)(C(=O)OC)[C@H](OC(C)=O)[C@]5(CC)C=CCN6CC[C@]43[C@@H]65)C2)C1 [Vincristine sulfate]
5. Cl.NCC#Cc1ccccc1 [3-Phenylpropargylamine hydrochloride]
6. C[N+](C)(C)CC#CCN1CCCC1=O [Oxotremorine methiodide]
7. CCC1(c2ccccc2)C(=O)NCNC1=O [Primidone]

1: −0.613; 2: −4.179; 3: −2.655; 4: −10.792; 5: −2.043; 6: −0.700; 7: 0.619

Each compound below has a reported value. Please supply its Z score.
1. O=C1CC[C@@]2(O)[C@H]3Cc4ccc(O)c5c4[C@@]2(CCN3CC2CC2)[C@H]1O5 [Naltrexone hydrochloride]
2. Br.C[N+](C)(C)CCCCCNCC12CC3CC(CC(C3)C1)C2.[Br-] [IEM-1460]
3. C[C@@H]1O[C@H](C[N+](C)(C)C)C[C@H]1O.[Cl-] (racemic) [(±)-Muscarine chloride]
4. COC(=O)Nc1nc2ccc(C(=O)c3cccs3)cc2[nH]1 [Nocodazole]
5. N[C@@H](Cc1c[nH]c2ccc(O)cc12)C(=O)O [5-Hydroxy-L-tryptophan]

0.389
0.685
−1.905
−0.189
0.030
